experiment description: Oral bioavailability in rat
Assay type: ADME, organism-based
measurement parameters: in vivo
endpoint label: bioavailability (%)
Numbers only, in %.

// fetch bioavailability given entry COc1cc(/C=C2\CCCN3C2=NOC[C@@H]3c2cc(F)c(F)c(F)c2)ccc1-n1cnc(C)c1
100

###

experiment description: Ratio of drug level in brain to plasma rat at 10 mg/kg, po after 6 hrs
Format: ADME, organism-based
Parameters: dose 10 mg/kg, route oral
measurement parameters: read-out: BPR
Kindly supply the reported Kp at 6 h values for the records listed here.

INSERT INTO measurements (compound, endpoint_label, observed_result) VALUES
  ('COc1cc(/C=C2\CCCN3C2=NOC[C@@H]3c2cc(F)c(OC)c(F)c2)ccc1-n1cnc(C)c1', 'Kp at 6 h', 1.1),
  ('COc1cc(/C=C2\CCCN3C2=NOC[C@@H]3c2ccccc2)ccc1-n1cnc(C)c1', 'Kp at 6 h', 0.9),
  ('COc1cc(/C=C2\CCCN3C2=NOC[C@@H]3c2ccc(F)cc2)ccc1-n1cnc(C)c1', 'Kp at 6 h', 0.8);

Need Kp at 6 h for each of these molecules.
1. COc1cc(/C=C2\CCCN3C[C@H](c4cc(F)c(F)c(F)c4)ON=C23)ccc1-n1cnc(C)c1
2. COc1cc(/C=C2\CCCN3C2=NOC[C@@H]3c2cc(F)cc(Cl)c2)ccc1-n1cnc(C)c1
3. COc1cc(/C=C2\CCCN3C2=NOC[C@@H]3c2cc(F)c(F)c(F)c2)ccc1-n1cnc(C)c1

1
1.1
0.4
